In this section, each of the compounds is paired with its reported MIC of the compounds.
tested on: Neisseria gonorrhoeae ISM 68/126; experiment: MIC by microbroth dilution, Neisseria gonorrhoeae; assay type: cell-based; conditions: Neisseria gonorrhoeae ISM 68/126 (code 997); 5% CO2, 48 h; 0.01% BSA; inocula about 10^4 (1-4), about 5×10^5 cfu/ml (5, 6)
test-readout: MIC of the compounds

INSERT INTO assay_data (compound, test_readout, result) VALUES
  ('CCN(CC)Cc1sc2nc1C(=O)NCC(=O)NC(C(O)c1ccccc1)c1nc(cs1)-c1nc(cs1)-c1nc(-c3nc(C4=NC(C(=O)N5CCCC5C(N)=O)CO4)cs3)ccc1-c1nc(cs1)C(=O)NC(CC(=O)NC)c1nc(c(C)s1)C(=O)NC2C(C)C (stereo not drawn)', 'MIC of the compounds', '> 128 µg/mL'),
  ('CNC(=O)C[C@@H]1NC(=O)c2csc(n2)-c2ccc(-c3nc(C4=N[C@H](C(=O)N5CCC[C@H]5C(N)=O)CO4)cs3)nc2-c2csc(n2)-c2csc(n2)C(C(O)c2ccccc2)NC(=O)CNC(=O)c2nc(sc2CN(C)CCN(C)C)[C@H](C(C)C)NC(=O)c2nc1sc2C (stereo partly drawn)', 'MIC of the compounds', '> 128 µg/mL'),
  ('CCSCc1sc2nc1C(=O)NCC(=O)NC(C(O)c1ccccc1)c1nc(cs1)-c1nc(cs1)-c1nc(-c3nc(C4=N[C@H](C(=O)N5CCC[C@H]5C(N)=O)CO4)cs3)ccc1-c1nc(cs1)C(=O)N[C@@H](CC(=O)NC)c1nc(c(C)s1)C(=O)N[C@H]2C(C)C (stereo partly drawn)', 'MIC of the compounds', '> 128 µg/mL');

Just for reference, patent US6008225A is where these values come from.
